Reference for the values: paper PMC6277198

Target: LCAT R244A (Homo sapiens, UniProt P04180, R268A)
Construct: hydrolysis of 4-methylumbelliferyl palmitate (MUP) by full-length LCAT; made in house; host or cells: HEK293F (transient transfection, secreted)
Sequence (P04180 25-440 R268A): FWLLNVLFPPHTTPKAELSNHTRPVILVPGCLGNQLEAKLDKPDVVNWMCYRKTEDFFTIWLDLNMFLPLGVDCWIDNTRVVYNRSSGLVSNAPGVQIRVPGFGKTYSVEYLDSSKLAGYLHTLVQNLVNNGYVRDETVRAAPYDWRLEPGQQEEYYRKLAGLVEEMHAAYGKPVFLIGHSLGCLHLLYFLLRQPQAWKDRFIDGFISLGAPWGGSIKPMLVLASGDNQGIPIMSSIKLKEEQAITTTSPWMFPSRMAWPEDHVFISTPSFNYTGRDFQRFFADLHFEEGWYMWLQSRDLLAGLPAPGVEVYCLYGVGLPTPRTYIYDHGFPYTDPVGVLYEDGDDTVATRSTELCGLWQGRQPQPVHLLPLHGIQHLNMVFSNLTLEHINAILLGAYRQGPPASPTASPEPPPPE
Assay: MUP hydrolysis (esterase) assay
Assay type: biochemical
Conditions: compound titrated from 0.04 to 9.5 μM
Fold activation, MUP esterase assay values for the compounds below.
Numbers only here, please. The scale is fold.

These recorded examples may help you get a feel for the data.
[
  {
    "compound": "O=C1CC(O)(C(F)(F)F)c2c(C3CCN(c4cnc(C(F)(F)F)cn4)CC3)n[nH]c2N1 (stereo not drawn) [compound 2]",
    "readout-unit": "fold",
    "Fold activation, MUP esterase assay": 1.9
  },
  {
    "compound": "O=C1CC(O)(C(F)(F)F)c2c(C3CCN(c4cnc(C(F)(F)F)cn4)CC3)noc2N1 (stereo not drawn) [compound 9]",
    "readout-unit": "fold",
    "Fold activation, MUP esterase assay": 1.2
  }
]

Could you share which Fold activation, MUP esterase assay value was measured for N#Cc1cnc(N2CCC(c3n[nH]c4c3C(O)(C(F)(F)F)CC(=O)N4)CC2)cc1C(F)(F)F (stereo not drawn) [compound 1] ?
1.7

Which Fold activation, MUP esterase assay value belongs to O=c1cc(C(F)(F)F)c2c(ncn2C2CCN(c3cnc(C(F)(F)F)cn3)CC2)[nH]1 [compound 8] ?
3.2

Entry O=C1CC(O)(C(F)(F)F)c2c(ncn2C2CCN(c3cnc(C(F)(F)F)cn3)CC2)N1 (stereo not drawn) [compound 3] has what Fold activation, MUP esterase assay?
1.9

* * *

Target: LCAT R244A (Homo sapiens, UniProt P04180, R268A)
Construct: hydrolysis of 4-methylumbelliferyl palmitate (MUP) by full-length LCAT; made in house; host or cells: HEK293F (transient transfection, secreted)
Sequence (P04180 25-440 R268A): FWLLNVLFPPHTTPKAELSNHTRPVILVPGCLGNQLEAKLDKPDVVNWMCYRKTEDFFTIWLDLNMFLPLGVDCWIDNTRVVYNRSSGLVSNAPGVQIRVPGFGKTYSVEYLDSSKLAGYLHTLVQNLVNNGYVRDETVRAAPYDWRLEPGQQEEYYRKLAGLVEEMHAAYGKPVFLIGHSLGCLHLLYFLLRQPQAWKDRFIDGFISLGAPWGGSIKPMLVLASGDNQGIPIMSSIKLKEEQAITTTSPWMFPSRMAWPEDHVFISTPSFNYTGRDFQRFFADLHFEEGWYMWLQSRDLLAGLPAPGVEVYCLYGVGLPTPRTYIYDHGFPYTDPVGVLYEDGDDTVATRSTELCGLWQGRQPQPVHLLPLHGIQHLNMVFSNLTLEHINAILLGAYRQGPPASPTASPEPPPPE
Assay: MUP hydrolysis (esterase) assay
Format: biochemical
Settings: compound titrated from 0.04 to 9.5 μM, read-out: MUP assay EC50
measure-name: EC50

// worked examples, EC50 included
[
  {
    "compound": "N#Cc1cnc(N2CCC(c3n[nH]c4c3C(O)(C(F)(F)F)CC(=O)N4)CC2)cc1C(F)(F)F (centres unmarked) [compound 1]",
    "tested-on": "LCAT R244A (Homo sapiens, UniProt P04180, R268A)",
    "EC50": "0.13 µM"
  },
  {
    "compound": "O=C1CC(O)(C(F)(F)F)c2c(C3CCN(c4cnc(C(F)(F)F)cn4)CC3)noc2N1 (centres unmarked) [compound 9]",
    "tested-on": "LCAT R244A (Homo sapiens, UniProt P04180, R268A)",
    "EC50": "6.2 µM"
  },
  {
    "compound": "O=c1cc(C(F)(F)F)c2c(ncn2C2CCN(c3cnc(C(F)(F)F)cn3)CC2)[nH]1 [compound 8]",
    "tested-on": "LCAT R244A (Homo sapiens, UniProt P04180, R268A)",
    "EC50": "> 10 µM"
  },
  {
    "compound": "O=C1CC(O)(C(F)(F)F)c2c(ncn2C2CCN(c3cnc(C(F)(F)F)cn3)CC2)N1 (centres unmarked) [compound 3]",
    "tested-on": "LCAT R244A (Homo sapiens, UniProt P04180, R268A)",
    "EC50": "0.4 µM"
  }
]

Shift focus to the following entry.
Which measured EC50 value corresponds to O=C1CC(O)(C(F)(F)F)c2c(C3CCN(c4cnc(C(F)(F)F)cn4)CC3)n[nH]c2N1 (centres unmarked) [compound 2] ?
0.27 µM
